TARGET_DESC: MAL^TIR (Homo sapiens)
Construct: MAL (residues 79–221); 6xHis; made in house; host or cells: E. coli BL21 (DE3)
TEST_DETAILS: T‐Surf phage library (P8 and P3) selection against MAL^TIR, four rounds, NGS read counts
Format: binding
MEASUREMENT_CONDITIONS: P3 library, 4R selection against MAL, rank before grouping
MEASUREMENT_TYPE: P3_MAL Rank (before)

[[record]]
residue_sequence = "SSFREDMWRRLELSQQ"
test_result = 3188

[[record]]
residue_sequence = "LHNNRILVLITLPTNV"
test_result = 2132

[[record]]
residue_sequence = "HQARWNRPWAKLKPPT"
test_result = 2895


---

TARGET_DESC: MyD88^TIR (Homo sapiens)
Construct: MyD88 (residues 148–296); 6xHis; made in house; host or cells: E. coli BL21 (DE3)
Sequence (Q99836 148-296): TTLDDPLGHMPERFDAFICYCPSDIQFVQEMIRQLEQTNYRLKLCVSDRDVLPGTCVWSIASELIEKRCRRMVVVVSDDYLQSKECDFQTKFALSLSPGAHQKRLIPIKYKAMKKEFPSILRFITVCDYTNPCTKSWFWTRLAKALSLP
TEST_DETAILS: T‐Surf phage library (P8 and P3) selection against MyD88^TIR, four rounds, NGS read counts
Assay type: binding
MEASUREMENT_CONDITIONS: P3 library, 4R selection against MyD88, rank after grouping
MEASUREMENT_TYPE: P3_MyD88 Rank (after)

[[record]]
residue_sequence = "KEVEGWRNALTNVASL"
target_desc = "MyD88^TIR (Homo sapiens)"
test_result = 617

[[record]]
residue_sequence = "LKVESCVRRWKKRAN"
target_desc = "MyD88^TIR (Homo sapiens)"
test_result = 592

[[record]]
residue_sequence = "SRLCVMCWKNCVLPN"
target_desc = "MyD88^TIR (Homo sapiens)"
test_result = 624

[[record]]
residue_sequence = "YAFTGHLHRIWCSVA"
target_desc = "MyD88^TIR (Homo sapiens)"
test_result = 581

[[record]]
residue_sequence = "YNFISHLYDALRLNKIAPF"
target_desc = "MyD88^TIR (Homo sapiens)"
test_result = 634

[[record]]
residue_sequence = "EWIREQLCLALKERLP"
target_desc = "MyD88^TIR (Homo sapiens)"
test_result = 637

[[record]]
residue_sequence = "YTALTNRAFIPFVIM"
target_desc = "MyD88^TIR (Homo sapiens)"
test_result = 590

[[record]]
residue_sequence = "NQWKLALTKVANLV"
target_desc = "MyD88^TIR (Homo sapiens)"
test_result = 579

[[record]]
residue_sequence = "EAFAVHENISKKTLK"
target_desc = "MyD88^TIR (Homo sapiens)"
test_result = 611

[[record]]
residue_sequence = "RFWERLRYMIPEVSHQ"
target_desc = "MyD88^TIR (Homo sapiens)"
test_result = 598

[[record]]
residue_sequence = "YTALTNSGFSEENLF"
target_desc = "MyD88^TIR (Homo sapiens)"
test_result = 668

[[record]]
residue_sequence = "RISAFHQQLVIALEAQ"
target_desc = "MyD88^TIR (Homo sapiens)"
test_result = 650

[[record]]
residue_sequence = "SSFRDDLWRLLELSKK"
target_desc = "MyD88^TIR (Homo sapiens)"
test_result = 582

[[record]]
residue_sequence = "RISAFHQQLVMALNTQ"
target_desc = "MyD88^TIR (Homo sapiens)"
test_result = 614

[[record]]
residue_sequence = "VDPTHIRNQTGRYEKA"
target_desc = "MyD88^TIR (Homo sapiens)"
test_result = 642

[[record]]
residue_sequence = "LVSHEISKKVKIFATI"
target_desc = "MyD88^TIR (Homo sapiens)"
test_result = 638

[[record]]
residue_sequence = "KELVHVWSSKANSRVG"
target_desc = "MyD88^TIR (Homo sapiens)"
test_result = 651

[[record]]
residue_sequence = "DHHMDLPRDTAIKPEILG"
target_desc = "MyD88^TIR (Homo sapiens)"
test_result = 661

[[record]]
residue_sequence = "RISAFHKQLVMAVKAQ"
target_desc = "MyD88^TIR (Homo sapiens)"
test_result = 674

[[record]]
residue_sequence = "YAFTGHLHRYIEQRSG"
target_desc = "MyD88^TIR (Homo sapiens)"
test_result = 610

[[record]]
residue_sequence = "EWNRKQKRPDQKERLQ"
target_desc = "MyD88^TIR (Homo sapiens)"
test_result = 608

[[record]]
residue_sequence = "KNLLNALMSKNIRTFM"
target_desc = "MyD88^TIR (Homo sapiens)"
test_result = 622

[[record]]
residue_sequence = "NELLHVWSSKANSLEG"
target_desc = "MyD88^TIR (Homo sapiens)"
test_result = 648

[[record]]
residue_sequence = "SSFREGLWRLMALIKK"
target_desc = "MyD88^TIR (Homo sapiens)"
test_result = 600

[[record]]
residue_sequence = "SSLREGLWRLLELGKK"
target_desc = "MyD88^TIR (Homo sapiens)"
test_result = 597

[[record]]
residue_sequence = "KEREFGAQRAGKWRAA"
target_desc = "MyD88^TIR (Homo sapiens)"
test_result = 670

[[record]]
residue_sequence = "RSFREGLWRLLELRKK"
target_desc = "MyD88^TIR (Homo sapiens)"
test_result = 629

[[record]]
residue_sequence = "WIWEKLKYALPHRYEP"
target_desc = "MyD88^TIR (Homo sapiens)"
test_result = 640

[[record]]
residue_sequence = "KEVEGWRCADQSGEP"
target_desc = "MyD88^TIR (Homo sapiens)"
test_result = 666

[[record]]
residue_sequence = "SENYATSPWAPELLR"
target_desc = "MyD88^TIR (Homo sapiens)"
test_result = 658

[[record]]
residue_sequence = "GEVPRYIFTGHLHATQ"
target_desc = "MyD88^TIR (Homo sapiens)"
test_result = 633

[[record]]
residue_sequence = "EWIREQLRPALKERMT"
target_desc = "MyD88^TIR (Homo sapiens)"
test_result = 619

[[record]]
residue_sequence = "NQWRNALTAAANLSGEFG"
target_desc = "MyD88^TIR (Homo sapiens)"
test_result = 604

[[record]]
residue_sequence = "SSFREGLWHLLQLSLK"
target_desc = "MyD88^TIR (Homo sapiens)"
test_result = 584

[[record]]
residue_sequence = "LKCCYPYFWSKLRYAM"
target_desc = "MyD88^TIR (Homo sapiens)"
test_result = 612

[[record]]
residue_sequence = "YLKWKEALHQFHSWV"
target_desc = "MyD88^TIR (Homo sapiens)"
test_result = 601

[[record]]
residue_sequence = "SSCREGLWRLLELIKK"
target_desc = "MyD88^TIR (Homo sapiens)"
test_result = 607

[[record]]
residue_sequence = "DHHLDLPRGKALTPEILG"
target_desc = "MyD88^TIR (Homo sapiens)"
test_result = 657

[[record]]
residue_sequence = "YTALTNSGFHTFRVNV"
target_desc = "MyD88^TIR (Homo sapiens)"
test_result = 659

[[record]]
residue_sequence = "AWIREQLRTALKERPP"
target_desc = "MyD88^TIR (Homo sapiens)"
test_result = 595

[[record]]
residue_sequence = "KMQKWNDALYEAAHLR"
target_desc = "MyD88^TIR (Homo sapiens)"
test_result = 636

[[record]]
residue_sequence = "SSFREALWRLIELSTK"
target_desc = "MyD88^TIR (Homo sapiens)"
test_result = 667

[[record]]
residue_sequence = "SSIREGLWRQLELSKK"
target_desc = "MyD88^TIR (Homo sapiens)"
test_result = 665

[[record]]
residue_sequence = "PSEVRKQTGSLAKAAL"
target_desc = "MyD88^TIR (Homo sapiens)"
test_result = 593

[[record]]
residue_sequence = "FLSYRALEKRFGRLA"
target_desc = "MyD88^TIR (Homo sapiens)"
test_result = 625

[[record]]
residue_sequence = "QGDPSYRLTLHYRDVN"
target_desc = "MyD88^TIR (Homo sapiens)"
test_result = 591

[[record]]
residue_sequence = "PENDNGGENAFINHIV"
target_desc = "MyD88^TIR (Homo sapiens)"
test_result = 635

[[record]]
residue_sequence = "WFWDKQKYTLPHRYEP"
target_desc = "MyD88^TIR (Homo sapiens)"
test_result = 583

[[record]]
residue_sequence = "SRDYATSPWALDELLR"
target_desc = "MyD88^TIR (Homo sapiens)"
test_result = 627

[[record]]
residue_sequence = "SCFCEELCCVLELSKK"
target_desc = "MyD88^TIR (Homo sapiens)"
test_result = 656

[[record]]
residue_sequence = "LVAHRFSKKMKIFATM"
target_desc = "MyD88^TIR (Homo sapiens)"
test_result = 621

[[record]]
residue_sequence = "SELCVVAEGSVSPLDM"
target_desc = "MyD88^TIR (Homo sapiens)"
test_result = 587

[[record]]
residue_sequence = "DTKLKEGDCVPPELLR"
target_desc = "MyD88^TIR (Homo sapiens)"
test_result = 664


---

TARGET_DESC: MAL^TIR (Homo sapiens, UniProt P58753)
Construct: MAL (residues 79–221); 6xHis; made in house; host or cells: E. coli BL21 (DE3)
Sequence (P58753 79-221): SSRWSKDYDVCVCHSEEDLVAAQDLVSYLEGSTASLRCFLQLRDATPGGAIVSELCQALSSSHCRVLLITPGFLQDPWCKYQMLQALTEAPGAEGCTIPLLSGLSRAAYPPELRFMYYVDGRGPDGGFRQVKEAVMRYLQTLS
TEST_DETAILS: T‐Surf phage library (P8 and P3) selection against MAL^TIR, four rounds, NGS read counts
Type: binding
MEASUREMENT_CONDITIONS: P8 library, selection against MAL TIR; rank by count before grouping
MEASUREMENT_TYPE: P8_MAL Rank (before)

Solved cases below.
[[record]]
residue_sequence = "SLQYAHLRWLGIRAFL"
test_result = 2523

[[record]]
residue_sequence = "AFFWTHLKNLPRNPTF"
test_result = 1721

[[record]]
residue_sequence = "RNSVAYLFQALADKGI"
test_result = 2247


P = SFFWNKLRYHLPAPQH
Q = AFFWAHLKSVLGKPTM
R = AFFLGTAAYRAGQTDD
Number of sequences to sort: 3. Sort criterion: P8_MAL Rank (before), ascending. Would you mind listing the labels in the order requested?
R, Q, P
